MEASURED ON: Botulinum neurotoxin type A (Clostridium botulinum, UniProt P0DPI0)
Sequence (P0DPI0 2-448 limits assumed): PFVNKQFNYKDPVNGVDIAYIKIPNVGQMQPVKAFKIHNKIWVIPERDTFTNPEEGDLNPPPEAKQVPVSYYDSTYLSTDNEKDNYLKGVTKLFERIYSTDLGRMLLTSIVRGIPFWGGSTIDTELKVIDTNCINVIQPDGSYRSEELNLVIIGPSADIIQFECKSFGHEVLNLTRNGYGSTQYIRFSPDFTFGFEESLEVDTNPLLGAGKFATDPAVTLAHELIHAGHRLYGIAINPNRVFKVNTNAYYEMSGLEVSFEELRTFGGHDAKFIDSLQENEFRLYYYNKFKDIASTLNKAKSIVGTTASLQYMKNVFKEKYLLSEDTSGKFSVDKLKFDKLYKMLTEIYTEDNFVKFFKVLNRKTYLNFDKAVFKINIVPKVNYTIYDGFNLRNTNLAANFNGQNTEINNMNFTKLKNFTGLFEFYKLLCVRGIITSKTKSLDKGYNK
PROCEDURE TEXT: Inhibition of Clostridium botulinum toxin BoNT/A light chain by HPLC-based assay
MEASURED QUANTITY: IC50 (µM)

SMILES REPR	LIMIT QUALIFIER	DATA VALUE
CN(C)CC/N=C(\N)c1ccc(Oc2ccc(-c3cc4ccc(/C(N)=N/CCN(C)C)cc4[nH]3)cc2)cc1	=	4.4
c1cc(C2=NCCCN2)ccc1Oc1ccc(-c2cc3ccc(C4=NCCCN4)cc3[nH]2)nc1	>	100
c1cc(C2=NCCCN2)ccc1Oc1ccc(-c2nc3ccc(C4=NCCCN4)cc3[nH]2)cc1	=	41
c1cc(C2=NCCN2)ccc1Oc1ccc(-c2cc3ccc(C4=NCCN4)cc3[nH]2)nc1	>	100
